Here, each record is paired with measured melting point data.

Record excerpt, results attached:
CC(CCC(=O)O)C1CCC2C3C(=O)CC4CC(OC5CCCCO5)CCC4(C)C3CCC12C (configuration not stated)	157 to 159 °C
CCCCCCc1cc2c(s1)-n1c(C)nnc1CN=C2c1cccc(C)c1C	103 to 105 °C
Cc1cc(C(N)=S)c2c(c1C)C(=O)CC2	207 to 208 °C

Short answer for CCn1c(=O)c(=O)[nH]c2ccc([N+](=O)[O-])cc21 : melting point was > 300 °C

Short answer for O=C1C=NC(c2ccccc2)O1 (configuration not stated) : melting point was 90 °C

Short answer for Cc1oc2c(NC(=O)c3c(Cl)ccc(Cl)c3C(N)=O)cccc2c1C : melting point was 229 to 232 °C

Short answer for CCN(C(=O)N1CCN(c2cc(OC)cc(OC)c2)CC1)c1nc2ccccc2nc1OC : melting point was 129 to 130 °C
